Would you mind telling me the reported mortality at 1 mg/kg of each entry?
# Test system: Culicidae
# Assay summary: Toxicity against fourth-instar larvae of Culex pipiens pallens assessed as mortality at 1 mg/kg measured after 7 to 10 days
# Format: functional
Only the number, expressed in %, is required.

Record Cc1c(C(=O)NN(C(=O)c2cccc([N+](=O)[O-])c2)C(C)(C)C)ccc2c1CC(C)O2 (stereo not given) . Reported mortality at 1 mg/kg: 10

Briefly, mortality at 1 mg/kg measured for Cc1c(C(=O)NN(C(=O)c2ccccc2Cl)C(C)(C)C)ccc2c1CC(C)O2 (stereo not given) : 20

Consider Cc1cccc(C(=O)N(NC(=O)c2ccc3c(c2C)CC(C)(C)O3)C(C)(C)C)c1 . Its measured mortality at 1 mg/kg is 10

The reported value for Cc1cc(C)cc(C(=O)N(NC(=O)c2ccc3c(c2C)CCCO3)C(C)(C)C)c1 [CHROMAFENOZIDE] in terms of mortality at 1 mg/kg is 80

compound Cc1c(C(=O)NN(C(=O)c2ccccc2)C(C)(C)C)ccc2c1CC(C)O2 (stereo not given) , mortality at 1 mg/kg observed: 0

###

# System: Culicidae
# Assay summary: Toxicity against fourth-instar larvae of Culex pipiens pallens assessed as mortality at 1 mg/kg measured after 7 to 10 days
# Assay type: functional
Metric name: mortality at 1 mg/kg (%)
Give your result in % as a bare value.

Field mortality at 1 mg/kg (system: Culicidae) for entry COc1cccc(C(=O)N(NC(=O)c2ccc3c(c2C)CC(C)(C)O3)C(C)(C)C)c1 = 30

mortality at 1 mg/kg for Culicidae with input Cc1cc(C)cc(C(=O)N(NC(=O)c2ccc3c(c2C)CC(C)O3)C(C)(C)C)c1 (centres undefined) equals 10

Hey, Culicidae data for Cc1c(C(=O)NN(C(=O)c2ccc(Cl)cc2Cl)C(C)(C)C)ccc2c1CC(C)O2 (centres undefined) : mortality at 1 mg/kg came out at 0

Per the reported Culicidae data, Cc1c(C(=O)NN(C(=O)c2ccc(Cl)cc2)C(C)(C)C)ccc2c1CC(C)(C)O2 has mortality at 1 mg/kg of 10

Fill in: Culicidae mortality at 1 mg/kg for Cc1c(C(=O)NN(C(=O)c2ccc(Cl)cc2Cl)C(C)(C)C)ccc2c1CC(C)(C)O2 = 0

Known value: Culicidae mortality at 1 mg/kg of the compound Cc1cc(C)cc(C(=O)N(NC(=O)c2ccc3c(c2C)CC(C)(C)O3)C(C)(C)C)c1 equals 0

mortality at 1 mg/kg on Culicidae for Cc1c(C(=O)NN(C(=O)c2ccc(Cl)cc2)C(C)(C)C)ccc2c1CC(C)O2 (centres undefined) is 0

mortality at 1 mg/kg on Culicidae for COc1ccccc1C(=O)N(NC(=O)c1ccc2c(c1C)CC(C)(C)O2)C(C)(C)C is 10

The recorded mortality at 1 mg/kg with Culicidae for Cc1c(C(=O)NN(C(=O)c2cc(Cl)cc(Cl)c2)C(C)(C)C)ccc2c1CC(C)O2 (centres undefined) was 50

###

# Tested on: Mythimna separata
# Assay summary: Stomach toxicity in fourth-instar Mythimna separata (Oriental armyworm) larvae in compound treated corn leaves assessed as mortality at 100 mg/kg measured after 4 days
# Assay type: functional
# Condition notes: 96 h
Metric name: mortality at 100 mg/kg (%)
Numbers only here, please. The scale is %.

# compound Cc1c(C(=O)NN(C(=O)c2cc([N+](=O)[O-])cc([N+](=O)[O-])c2)C(C)(C)C)ccc2c1CC(C)O2 (stereo not given) ; its mortality at 100 mg/kg = 0

Record Cc1c(C(=O)NN(C(=O)c2ccccc2Cl)C(C)(C)C)ccc2c1CC(C)O2 (stereo not given) . Reported mortality at 100 mg/kg: 100

Form: compound = Cc1c(C(=O)NN(C(=O)c2cccc([N+](=O)[O-])c2)C(C)(C)C)ccc2c1CC(C)O2 (stereo not given) ; mortality at 100 mg/kg = 0

Given item Cc1c(C(=O)NN(C(=O)c2ccc(Cl)cc2Cl)C(C)(C)C)ccc2c1CC(C)(C)O2 , the value recorded as its mortality at 100 mg/kg is 10

Entry Cc1cccc(C(=O)N(NC(=O)c2ccc3c(c2C)CC(C)O3)C(C)(C)C)c1 (stereo not given) , mortality at 100 mg/kg reported as 100

###

# System: Mythimna separata
# Assay summary: Stomach toxicity in fourth-instar Mythimna separata(Oriental armyworm) larvae in compound treated corn leaves assessed as mortality at 200 mg/kg measured after 4 days
# Format: functional
# Condition notes: 96 h
Kindly state mortality at 200 mg/kg for each of the entries shown.
Record the value in %, omitting the unit from your answer.

Field mortality at 200 mg/kg (entry Cc1cc(C)cc(C(=O)N(NC(=O)c2ccc3c(c2C)OC(C)C3)C(C)(C)C)c1 (stereo unspecified) ) reads 100

// mortality at 200 mg/kg lookup, molecule = Cc1c(C(=O)NN(C(=O)c2ccc([N+](=O)[O-])cc2)C(C)(C)C)ccc2c1CC(C)O2 (stereo unspecified) , result: 60

Form field mortality at 200 mg/kg, entry Cc1c(C(=O)NN(C(=O)c2ccc(Cl)cc2)C(C)(C)C)ccc2c1CC(C)O2 (stereo unspecified) : 100

mortality at 200 mg/kg reported for this molecule Cc1c(C(=O)NN(C(=O)c2ccccc2)C(C)(C)C)ccc2c1CC(C)(C)O2 : 40

COc1ccccc1C(=O)N(NC(=O)c1ccc2c(c1C)CC(C)(C)O2)C(C)(C)C has a reported mortality at 200 mg/kg of 0

Value of measured mortality at 200 mg/kg for the entry Cc1c(C(=O)NN(C(=O)c2ccc(Cl)cc2Cl)C(C)(C)C)ccc2c1CC(C)O2 (stereo unspecified) : 100

###

# Tested on: Mythimna separata
# Assay summary: Stomach toxicity in fourth-instar Mythimna separata(Oriental armyworm) larvae in compound treated corn leaves assessed as mortality at 200 mg/kg measured after 4 days
# Assay type: functional
# Condition notes: 96 h
Metric name: mortality at 200 mg/kg (%)
Note: unit % is implicit; provide only the numeric part.

Cc1c(C(=O)NN(C(=O)c2ccc([N+](=O)[O-])cc2)C(C)(C)C)ccc2c1CC(C)(C)O2 has a reported mortality at 200 mg/kg of 10

// Cc1c(C(=O)NN(C(=O)c2ccccc2[N+](=O)[O-])C(C)(C)C)ccc2c1CC(C)O2 (stereo not given) : mortality at 200 mg/kg value = 100

Measured mortality at 200 mg/kg of Cc1c(C(=O)NN(C(=O)c2ccccc2)C(C)(C)C)ccc2c1CC(C)O2 (stereo not given) : 100

Entry under test: Cc1c(C(=O)NN(C(=O)c2cccc(Cl)c2)C(C)(C)C)ccc2c1CC(C)O2 (stereo not given) . Its mortality at 200 mg/kg was 100

// Cc1c(C(=O)NN(C(=O)c2ccc(Cl)cc2)C(C)(C)C)ccc2c1CC(C)(C)O2 : mortality at 200 mg/kg value = 90

###

# System: Culicidae
# Assay summary: Toxicity against fourth-instar larvae of Culex pipiens pallens assessed as mortality at 1 mg/kg measured after 7 to 10 days
# Format: functional
Metric name: mortality at 1 mg/kg (%)
// note: answer is a bare numeric in %

Value of mortality at 1 mg/kg reported for the compound Cc1cc(C)cc(C(=O)N(NC(=O)c2ccc3c(c2C)OC(C)C3)C(C)(C)C)c1 (stereo not given) is 100

Form field mortality at 1 mg/kg, entry Cc1c(C(=O)NN(C(=O)c2cccc(Cl)c2)C(C)(C)C)ccc2c1CC(C)(C)O2 : 0

For Cc1c(C(=O)NN(C(=O)c2cc(Cl)cc(Cl)c2)C(C)(C)C)ccc2c1CC(C)(C)O2 the compound record lists mortality at 1 mg/kg as 20

For record COc1ccc(C(=O)N(NC(=O)c2ccc3c(c2C)CC(C)(C)O3)C(C)(C)C)cc1 the listed mortality at 1 mg/kg is 0

In plain terms, Cc1c(C(=O)NN(C(=O)c2cc([N+](=O)[O-])cc([N+](=O)[O-])c2)C(C)(C)C)ccc2c1CC(C)O2 (stereo not given) has a documented mortality at 1 mg/kg of 20

Form field mortality at 1 mg/kg, entry Cc1c(C(=O)NN(C(=O)c2cccc(Cl)c2)C(C)(C)C)ccc2c1CC(C)O2 (stereo not given) : 20

Entry Cc1c(C(=O)NN(C(=O)c2ccccc2)C(C)(C)C)ccc2c1CC(C)(C)O2 , mortality at 1 mg/kg reported as 30

Lab note: Cc1c(C(=O)NN(C(=O)c2ccccc2[N+](=O)[O-])C(C)(C)C)ccc2c1CC(C)O2 (stereo not given) gave mortality at 1 mg/kg of 20

// mortality at 1 mg/kg lookup, compound = Cc1c(C(=O)NN(C(=O)c2ccc([N+](=O)[O-])cc2)C(C)(C)C)ccc2c1CC(C)(C)O2 , result: 0

The compound Cc1c(C(=O)NN(C(=O)c2ccccc2[N+](=O)[O-])C(C)(C)C)ccc2c1CC(C)(C)O2 showed mortality at 1 mg/kg equal to 20

So, Cc1cccc(C(=O)N(NC(=O)c2ccc3c(c2C)CC(C)O3)C(C)(C)C)c1 (stereo not given) ? Its mortality at 1 mg/kg was 0

Looking up Cc1c(C(=O)NN(C(=O)c2cccc([N+](=O)[O-])c2)C(C)(C)C)ccc2c1CC(C)(C)O2 , I found its mortality at 1 mg/kg recorded as 20

// Cc1c(C(=O)NN(C(=O)c2ccccc2Cl)C(C)(C)C)ccc2c1CC(C)(C)O2 : mortality at 1 mg/kg value = 20

Field mortality at 1 mg/kg (entry Cc1c(C(=O)NN(C(=O)c2ccc([N+](=O)[O-])cc2)C(C)(C)C)ccc2c1CC(C)O2 (stereo not given) ) reads 0

Reported mortality at 1 mg/kg for Cc1c(C(=O)NN(C(=O)c2cc([N+](=O)[O-])cc([N+](=O)[O-])c2)C(C)(C)C)ccc2c1CC(C)(C)O2 was 20
